target: Growth hormone secretagogue receptor type 1 (Homo sapiens, UniProt Q92847, F279A); assay: Agonist activity at human ghrelin receptor Phe6:16Ala(Phe279) mutant expressed in african green monkey COS7 cells assessed as stimulation of constitutively stimulated inositol phosphate accumulation
VALUE_KIND: IC50

Request: Hello, I am looking for reported IC50 with Growth hormone secretagogue receptor type 1 (Homo sapiens, UniProt Q92847, F279A) for `CC(C)C[C@H](NC(=O)[C@H](CC(C)C)NC(=O)[C@@H](Cc1c[nH]c2ccccc12)NC(=O)[C@H](Cc1ccccc1)NC(=O)[C@@H](Cc1c[nH]c2ccccc12)NC(=O)[C@H](C)N)C(N)=O` . Could you help?
Result: > 1 µM

###

Listing of recorded IC50 by entry.
biological target: Growth hormone secretagogue receptor type 1 (Homo sapiens, UniProt Q92847); test: Displacement of [35S]MK677 from human ghrelin receptor expressed in african green monkey COS7 cells; type: cell-based, COS-7
Sequence (Q92847 whole entry): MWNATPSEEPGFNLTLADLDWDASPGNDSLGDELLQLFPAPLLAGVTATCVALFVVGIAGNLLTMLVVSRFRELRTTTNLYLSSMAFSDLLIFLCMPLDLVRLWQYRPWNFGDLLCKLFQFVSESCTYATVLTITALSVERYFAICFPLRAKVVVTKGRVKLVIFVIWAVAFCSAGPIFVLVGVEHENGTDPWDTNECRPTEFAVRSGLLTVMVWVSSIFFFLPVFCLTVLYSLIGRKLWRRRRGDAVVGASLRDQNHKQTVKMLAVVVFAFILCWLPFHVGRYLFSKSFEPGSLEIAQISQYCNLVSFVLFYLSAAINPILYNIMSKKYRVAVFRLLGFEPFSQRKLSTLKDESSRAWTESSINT
Give just the numeric value; nM need not be written.

A selection of reference data follows.
ENTRY_SMILES: CC(C)C[C@H](NC(=O)[C@H](CC(C)C)NC(=O)[C@@H](Cc1c[nH]c2ccccc12)NC(=O)[C@H](Cc1ccccc1)NC(=O)[C@@H](Cc1c[nH]c2ccccc12)NC(=O)[C@H](C)N)C(N)=O
ENDPOINT_UNIT: nM
IC50: 53
--
ENTRY_SMILES: CC(C)C[C@H](NC(=O)[C@H](CC(C)C)NC(=O)[C@@H](Cc1c[nH]c2ccccc12)NC(=O)[C@H](Cc1ccccc1)NC(=O)[C@@H](Cc1c[nH]c2ccccc12)NC(=O)[C@@H](N)CCC(N)=O)C(N)=O
ENDPOINT_UNIT: nM
IC50: 120

Let us move to another entry and its IC50.
Request: Which IC50 is reported for this compound? `CC(C)C[C@H](NC(=O)[C@H](CC(C)C)NC(=O)[C@@H](Cc1c[nH]c2ccccc12)NC(=O)[C@H](Cc1ccccc1)NC(=O)[C@@H](Cc1c[nH]c2ccccc12)NC(=O)[C@@H](N)CCCN=C(N)N)C(N)=O`
Result: 12

###

target: Growth hormone secretagogue receptor type 1 (Homo sapiens, UniProt Q92847, N305A); assay: Agonist activity at human ghrelin receptor Asn7:02Ala(Asn305) mutant expressed in african green monkey COS7 cells assessed as stimulation of constitutively stimulated inositol phosphate accumulation; type: functional, cell-based, COS-7
Sequence (Q92847 whole entry N305A): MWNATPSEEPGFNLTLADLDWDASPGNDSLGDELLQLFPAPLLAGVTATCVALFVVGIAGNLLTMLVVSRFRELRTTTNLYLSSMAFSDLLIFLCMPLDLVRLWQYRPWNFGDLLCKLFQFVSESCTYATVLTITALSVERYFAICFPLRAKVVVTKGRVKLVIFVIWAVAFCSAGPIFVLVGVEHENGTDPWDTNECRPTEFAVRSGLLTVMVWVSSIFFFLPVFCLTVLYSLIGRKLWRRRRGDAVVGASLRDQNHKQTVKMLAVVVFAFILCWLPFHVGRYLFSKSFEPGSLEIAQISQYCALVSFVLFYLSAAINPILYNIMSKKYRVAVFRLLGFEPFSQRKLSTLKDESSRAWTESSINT
VALUE_KIND: pIC50
Keep it numeric: pIC50 is minus log10 of the concentration in mol/L.

Request: Report pIC50 for `CC(C)C[C@H](NC(=O)[C@H](CC(C)C)NC(=O)[C@@H](Cc1c[nH]c2ccccc12)NC(=O)[C@H](Cc1ccccc1)NC(=O)[C@@H](Cc1c[nH]c2ccccc12)NC(=O)[C@H](C)N)C(N)=O` tested on Growth hormone secretagogue receptor type 1 (Homo sapiens, UniProt Q92847, N305A).
Result: 7.82

###

target: Growth hormone secretagogue receptor type 1 (Homo sapiens, UniProt Q92847, S174A); assay: Agonist activity at human ghrelin receptor Ser4:16Ala(Ser174) mutant expressed in african green monkey COS7 cells assessed as stimulation of constitutively stimulated inositol phosphate accumulation; format: functional, cell-based, COS-7
Sequence (Q92847 whole entry S174A): as the sequence (Q92847 whole entry N305A) above, with S174A, A305N counted along it
VALUE_KIND: IC50 (nM)
Give the quantity in nM, number only.

Request: For `CC(C)C[C@H](NC(=O)[C@H](CC(C)C)NC(=O)[C@@H](Cc1c[nH]c2ccccc12)NC(=O)[C@H](Cc1ccccc1)NC(=O)[C@@H](Cc1c[nH]c2ccccc12)NC(=O)[C@H](C)N)C(N)=O` , what is its reported IC50?
Result: 6.1

###

molecular target: Growth hormone secretagogue receptor type 1 (Homo sapiens); assay: Agonist activity at human ghrelin receptor Phe7:06Leu(Phe306) mutant expressed in african green monkey COS7 cells assessed as stimulation of constitutively stimulated inositol phosphate accumulation; assay type: functional, cell-based; details: cos-7
Sequence (Q92847 whole entry, looked up): as the sequence (Q92847 whole entry) above
VALUE_KIND: IC50 (nM)
Quick reminder: number only, in nM, skip the unit.

Request: So what does the record say about IC50 for `CC(C)C[C@H](NC(=O)[C@H](CC(C)C)NC(=O)[C@@H](Cc1c[nH]c2ccccc12)NC(=O)[C@H](Cc1ccccc1)NC(=O)[C@@H](Cc1c[nH]c2ccccc12)NC(=O)[C@H](C)N)C(N)=O` ?
Result: 81

###

biological target: Growth hormone secretagogue receptor type 1 (Homo sapiens, UniProt Q92847, D99K); assay: Agonist activity at human ghrelin receptor Asp2:20Lys(Asp99) mutant expressed in african green monkey COS7 cells assessed as inhibition of inositol phosphate accumulation; assay type: functional, cell-based, COS-7
Sequence (Q92847 whole entry D99K): as the sequence (Q92847 whole entry) above, with D99K counted along it
pIC50: −log10 of the molar value.
VALUE_KIND: pIC50

Request: Given the compound `CC(C)C[C@H](NC(=O)[C@H](CC(C)C)NC(=O)[C@@H](Cc1c[nH]c2ccccc12)NC(=O)[C@H](Cc1ccccc1)NC(=O)[C@@H](Cc1c[nH]c2ccccc12)NC(=O)[C@@H](N)CCCCN)C(N)=O` , what is its reported pIC50?
Result: < 6.00

###

molecular target: Growth hormone secretagogue receptor type 1 (Homo sapiens); test: Inverse agonist activity at human wild type ghrelin receptor expressed in african green monkey COS7 cells assessed as inhibition of constitutively stimulated inositol phosphate accumulation; assay type: functional, cell-based, COS-7
VALUE_KIND: pIC50
Field pIC50 (float): negative decimal logarithm of the concentration in molar.

Request: Need pIC50 of `CC(C)C[C@H](NC(=O)[C@H](CC(C)C)NC(=O)[C@@H](Cc1c[nH]c2ccccc12)NC(=O)[C@H](Cc1ccccc1)NC(=O)[C@@H](Cc1c[nH]c2ccccc12)NC(=O)[C@@H](N)CCCCN)C(N)=O` , thanks.
Result: 7.49

###

target: Growth hormone secretagogue receptor type 1 (Homo sapiens, UniProt Q92847, E124Q); experiment: Inverse agonist activity at human ghrelin receptor Glu3:09Gln(Glu124) mutant expressed in african green monkey COS7 cells assessed as inhibition of constitutively stimulated inositol phosphate accumulation; format: functional, cell-based, COS-7
Sequence (Q92847 whole entry E124Q): as the sequence (Q92847 whole entry N305A) above, with E124Q, A305N counted along it
VALUE_KIND: IC50

Request: Given `CC(C)C[C@H](NC(=O)[C@H](CC(C)C)NC(=O)[C@@H](Cc1c[nH]c2ccccc12)NC(=O)[C@H](Cc1ccccc1)NC(=O)[C@@H](Cc1c[nH]c2ccccc12)NC(=O)[C@@H](N)CCCCN)C(N)=O` , state its recorded IC50.
Result: > 1 µM

###

molecular target: Growth hormone secretagogue receptor type 1 (Homo sapiens, UniProt Q92847); experiment: Agonist activity at human wild type ghrelin receptor expressed in african green monkey COS7 cells assessed as stimulation of constitutively stimulated inositol phosphate accumulation; assay type: functional, cell-based, COS-7
VALUE_KIND: pIC50
Notebook: values listed as pIC50 are -log10 of the concentration (mol/L).

Request: Provide the documented pIC50 with Growth hormone secretagogue receptor type 1 (Homo sapiens, UniProt Q92847) as the system for `CC(C)C[C@H](NC(=O)[C@H](CC(C)C)NC(=O)[C@@H](Cc1c[nH]c2ccccc12)NC(=O)[C@H](Cc1ccccc1)NC(=O)[C@@H](Cc1c[nH]c2ccccc12)NC(=O)[C@H](C)N)C(N)=O`
Result: 7.82

###

target: Growth hormone secretagogue receptor type 1 (Homo sapiens, UniProt Q92847, I178A); assay: Agonist activity at human ghrelin receptor Ile4:20Ala(Ile178) mutant expressed in african green monkey COS7 cells assessed as stimulation of constitutively stimulated inositol phosphate accumulation; format: functional, cell-based, COS-7
Sequence (Q92847 whole entry I178A): as the sequence (Q92847 whole entry N305A) above, with I178A, A305N counted along it
VALUE_KIND: IC50
Write the quantity with the unit trailing the number.

Request: Can you look up the measured IC50 of `CC(C)C[C@H](NC(=O)[C@H](CC(C)C)NC(=O)[C@@H](Cc1c[nH]c2ccccc12)NC(=O)[C@H](Cc1ccccc1)NC(=O)[C@@H](Cc1c[nH]c2ccccc12)NC(=O)[C@H](C)N)C(N)=O` for me?
Result: 160 nM

###

target: Growth hormone secretagogue receptor type 1 (Homo sapiens, UniProt Q92847, Q120A); assay: Agonist activity at human ghrelin receptor Gln3:05Ala(Gln120) mutant expressed in african green monkey COS7 cells assessed as stimulation of constitutively stimulated inositol phosphate accumulation; assay type: functional, cell-based, COS-7
VALUE_KIND: IC50

Request: Any idea what its IC50 is? The molecule is `CC(C)C[C@H](NC(=O)[C@H](CC(C)C)NC(=O)[C@@H](Cc1c[nH]c2ccccc12)NC(=O)[C@H](Cc1ccccc1)NC(=O)[C@@H](Cc1c[nH]c2ccccc12)NC(=O)[C@H](C)N)C(N)=O`
Result: > 1000 nM

###

molecular target: Growth hormone secretagogue receptor type 1 (Homo sapiens, UniProt Q92847, S123A); assay: Inverse agonist activity at human ghrelin receptor Ser3:08Ala(Ser123) mutant expressed in african green monkey COS7 cells assessed as inhibition of constitutively stimulated inositol phosphate accumulation
Sequence (Q92847 whole entry S123A): as the sequence (Q92847 whole entry) above, with S123A counted along it
VALUE_KIND: IC50
Be sure to follow the number with its unit.

Request: Can you share its IC50? I mean this compound: `CC(C)C[C@H](NC(=O)[C@H](CC(C)C)NC(=O)[C@@H](Cc1c[nH]c2ccccc12)NC(=O)[C@H](Cc1ccccc1)NC(=O)[C@@H](Cc1c[nH]c2ccccc12)NC(=O)[C@H](C)N)C(N)=O`
Result: 0.028 µM

Hey, just so you know, these numbers are from ChEMBL document CHEMBL1156448.
